target: Mcl-1 protein (UniProtKB Q07820) (Homo sapiens (Human), UniProt Q07820); assay: Inhibition of Mcl-1 by the fluorescence polarisation assay (Example A, Method A); conditions: fluorescence polarization assay
Sequence (Q07820 whole entry): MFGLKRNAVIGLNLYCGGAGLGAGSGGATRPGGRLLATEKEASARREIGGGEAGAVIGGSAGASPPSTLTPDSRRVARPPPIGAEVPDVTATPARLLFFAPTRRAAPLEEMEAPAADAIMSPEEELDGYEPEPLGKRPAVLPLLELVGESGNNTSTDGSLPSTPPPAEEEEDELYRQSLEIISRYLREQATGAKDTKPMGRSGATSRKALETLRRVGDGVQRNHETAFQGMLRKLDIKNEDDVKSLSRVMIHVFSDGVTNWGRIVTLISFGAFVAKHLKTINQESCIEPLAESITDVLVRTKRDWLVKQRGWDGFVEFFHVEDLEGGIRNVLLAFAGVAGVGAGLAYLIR
recorded endpoint: Ki (µM)

These recorded examples may help you get a feel for the data.
*Q* Give the value of Ki reported for the following: O=C(O)[C@]1(Nc2cccc(Cl)c2)CC[C@@]2(CC1)c1ccccc1C[C@H]2C1CCC1 [Example 100]
*A* 2.62

*Q* Give the value of Ki reported for the following: Cc1ccc(C2Cc3ccccc3C23CCC(Nc2cccc(Br)c2)(C(=O)O)CC3)s1 (single isomer, unassigned) [Example 263]
*A* 5.02

[1] O=C(O)[C@]1(Nc2cccc(Cl)c2)CC[C@@]2(CC1)c1ccccc1CC2c1ccc2c(c1)OCC2 (single isomer, unassigned) [Example 287]
[2] CC(C)C(COc1cccnc1)CC1Cc2ccccc2[C@]12CC[C@@](Nc1cccc(Cl)c1)(C(=O)O)CC2 (single isomer, unassigned) [Example 528]
[3] COc1ccc(C2Cc3ccccc3[C@]23CC[C@@](Nc2cccc(Cl)c2)(C(=O)O)CC3)c(C)c1 (single isomer, unassigned) [Example 255]
*Q* Order the 3 molecules from highest to lowest Ki. Lab note: final answer is the ordered label list.
*A* 3, 2, 1
(3: 11.6 µM, 2: 3.28 µM, 1: 0.925 µM)

[P] O=C(O)[C@]1(Nc2cccc(Cl)c2)CC[C@]2(CC1)C(CCCCOc1ccccc1)=Cc1ccccc12 [Example 160]
[Q] O=C(O)[C@]1(Nc2cccc(Cl)c2)CC[C@@]2(CC1)c1ccccc1CC2[C@H]1C[C@@H]1COc1cccnc1 (single isomer, unassigned) [Example 114]
*Q* I'm curious, which of these has a smaller Ki number: P or Q ? State your choice using its label.
*A* P
(P: 0.768 µM, Q: 27.3 µM)

[I] COc1cccc(N2Cc3ccccc3[C@]23CC[C@@](Nc2cccc(Br)c2)(C(=O)O)CC3)c1 [Example 32]
[II] C[C@H]1c2ccccc2[C@]2(CC[C@@](Nc3cccc(Cl)c3)(C(=O)O)CC2)[C@H]1C (single isomer, unassigned) [Example 208]
[III] C[C@@H](COc1ccnc2c1CCCCC2O)C[C@H]1Cc2ccccc2[C@]12CC[C@@](Nc1cccc(Cl)c1)(C(=O)O)CC2 (stereo partly shown) [Example 634]
[IV] Cc1cccc(CCOCC2=Cc3ccccc3[C@]23CC[C@@](Nc2cccc(Cl)c2)(C(=O)O)CC3)c1 [Example 411]
[V] O=C(O)[C@]1(Nc2cccc(Cl)c2)CC[C@@]2(CC1)c1ccccc1CC2CCCOc1ccccc1Cl (stereo partly shown) [Example 431]
*Q* Order each entry by recorded Ki, climbing from the minimum. Lab note: final answer is the ordered label list.
*A* III, V, IV, I, II
(III: 0.0868 µM, V: 0.138 µM, IV: 0.583 µM, I: 3.21 µM, II: 31.6 µM)

Values compiled from patent US20240150293A1.
